Origin of measurements: patent US8604206B2

In this section, each of the compounds is paired with its reported pIC50.
Molecular target: lysosomal GCase (Homo sapiens (Human), UniProt P04062)
Sequence (P04062 40-536): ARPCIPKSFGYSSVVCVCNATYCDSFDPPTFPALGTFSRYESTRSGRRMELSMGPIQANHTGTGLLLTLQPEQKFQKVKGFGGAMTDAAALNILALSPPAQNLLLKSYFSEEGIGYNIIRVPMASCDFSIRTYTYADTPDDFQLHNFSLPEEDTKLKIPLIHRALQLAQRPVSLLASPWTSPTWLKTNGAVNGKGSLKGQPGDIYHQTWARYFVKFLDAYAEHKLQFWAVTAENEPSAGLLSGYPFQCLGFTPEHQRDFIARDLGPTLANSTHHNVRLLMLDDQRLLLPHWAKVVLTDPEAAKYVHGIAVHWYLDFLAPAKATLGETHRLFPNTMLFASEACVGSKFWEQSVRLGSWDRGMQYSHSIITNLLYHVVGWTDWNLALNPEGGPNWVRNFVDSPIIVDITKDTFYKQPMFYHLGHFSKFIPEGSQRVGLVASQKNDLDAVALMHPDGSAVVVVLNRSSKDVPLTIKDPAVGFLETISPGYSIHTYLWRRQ
Assay: In situ lysosomal GCase inhibition and washout assay in fibroblasts from a normal subject
Settings: fibroblasts, 16-24 hours with compound, PFBFDβGlu substrate
The quantity pIC50 is defined as the negative base-10 logarithm of the molar concentration.

Worked examples, 4 compounds total:
compound	reportedMetric	valueReported
CC(O)[C@H]1CNC[C@@H](O)[C@@H]1O (single isomer, unassigned) [Cmpd 9]	pIC50	6.29
C[C@H](O)[C@H]1CNC[C@@H](O)[C@@H]1O (single isomer, unassigned) [Cmpd 10]	pIC50	6.10
CC[C@@H](F)[C@H]1CNC[C@@H](O)[C@@H]1O.Cl [hydrochloride]	pIC50	6.01
O[C@@H]1[C@@H](Cc2ccccc2)CNC[C@H]1O [(3R,4R,5S)-5-benzyl-piperidine-3,4-diol]	pIC50	5.89

Now for the compound whose pIC50 we want.
Request: pIC50, test system lysosomal GCase (Homo sapiens (Human), UniProt P04062), entry C[C@@H](F)[C@@H]1CNC[C@@H](O)[C@@H]1O.Cl [Cmpd 14, Hydrochloride]
7.21
